# SYSTEM TESTED: covalently-crosslinked hexameric CA A14C/E45C/W184A/M185A (CA121) (Human immunodeficiency virus type 1 group M subtype B, UniProt P12493, A146C/E177C/M317A/W316A)
# ASSAY NAME: Thermal shift assay (TSA), CA hexamer stability
# Format: binding, HIV-1
# CONDITION INFO: compound 20 μM, ΔTm=Tm−T0 vs DMSO
Consider the following compounds; for each one, report its TSA ΔTm (° C.).
Remember to follow the number with its unit.

- CN(C(=O)[C@H](Cc1ccccc1)NC(=O)CNC(=O)c1ccccc1)c1cccc(Cl)c1: 2.0 °C

Kindly give each listed record's TSA ΔTm (° C.).
1. Cc1ccc(C)c2c1NC(=O)C2CC(=O)N[C@@H](Cc1ccccc1)C(=O)N(C)c1ccccc1 (some centres unmarked)
2. CN(C(=O)[C@H](Cc1ccccc1)NC(=O)Cn1c(=O)[nH]c2ccccc2c1=O)c1ccccc1
3. Cc1cn(CC(=O)N[C@@H](Cc2ccccc2)C(=O)N(C)c2cccc(F)c2)c(=O)[nH]c1=O
4. CCN(C(=O)[C@H](Cc1ccccc1)NC(=O)Cc1cccc2ccccc12)c1ccccc1
5. COc1ccc2[nH]cc(CC(=O)N[C@@H](Cc3ccccc3)c3ncccc3-c3ccc(Br)cc3)c2c1
6. Cc1cn(CC(=O)N[C@@H](Cc2ccccc2)C(=O)N(C)c2ccccc2)c(=O)[nH]c1=O
7. Cc1cn(CC(=O)N[C@@H](Cc2ccccc2)C(=O)N(C)c2cccc(Cl)c2)c(=O)[nH]c1=O

−1.8 °C
2.7 °C
0.9 °C
4.9 °C
6.3 ± 0.6 °C
0.5 °C
0.6 °C

###

# ASSAY NAME: Microsomal stability assay, mouse liver microsomes
# Type: in vitro ADME
# CONDITION INFO: pH 7.4, with Cobicistat 0.5 μM (CYP3A inhibitor), 1 μM compound, NADPH, with 0.5 μM Cobicistat (CYP3A inhibitor), read-out: MLM (+Cobi) half-life (t1/2)
METRIC: log10 half-life at 1 μM (log10 of the value in min)
Use the decimal logarithm of half-life at 1 μM (min).

- Cc1cccc2c1NC(=O)C2CC(=O)N[C@@H](Cc1ccccc1)C(=O)N(C)c1cccc(F)c1 (some centres unmarked) [drawing 178]: 1.30

Kindly give each listed record's log10 half-life at 1 μM.
1. Cc1ccc(C)c2c1NC(=O)C2CC(=O)N[C@@H](Cc1ccccc1)C(=O)N(C)c1cccc(Cl)c1 (some centres unmarked) [drawing 180]
2. CN(C(=O)[C@H](Cc1ccccc1)NC(=O)Cc1cccc2ccccc12)c1ccc(Cl)cc1 [drawing 184]
3. Cc1cn(CC(=O)N[C@@H](Cc2ccccc2)C(=O)N(C)c2ccc(Cl)cc2)c(=O)[nH]c1=O [drawing 195]
4. CN(C(=O)[C@H](Cc1ccccc1)NC(=O)Cc1ccc2ccccc2c1)c1ccc(Cl)cc1 [drawing 182]

[1.53, 0.87, 2.59, 1.26]

###

# ASSAY NAME: Microsomal stability assay, human liver microsomes
# Assay type: in vitro ADME
# CONDITION INFO: pH 7.4, with Cobicistat 0.5 μM (CYP3A inhibitor); human liver microsomes, 1 μM compound, NADPH, with 0.5 μM Cobicistat (CYP3A inhibitor); read-out: HLM (+Cobi) half-life (t1/2)
Consider the following molecules; for each one, report its half-life at 1 μM.
Numbers only, in h.

These recorded examples may help you get a feel for the data.
• Cc1ccc(C)c2c1NC(=O)C2CC(=O)N[C@@H](Cc1ccccc1)C(=O)N(C)c1cccc(Cl)c1 (some centres unmarked) [drawing 180] = 1.78
• O=C(Cn1c(=O)[nH]c2ccccc2c1=O)N[C@@H](Cc1ccccc1)C(=O)N1CCC[C@H]1C(=O)Nc1ccccc1 = 9.63
• CCN(C(=O)[C@H](Cc1ccccc1)NC(=O)CNC(=O)c1ccccc1)c1ccccc1 [drawing 194] = 3.85
• CN(C(=O)[C@H](Cc1ccccc1)NC(=O)Cc1cccc2ccccc12)c1ccc(Cl)cc1 [drawing 184] = 1.7
• CN(C(=O)[C@H](Cc1ccccc1)NC(=O)CNC(=O)c1ccccc1)c1ccc(Cl)cc1 [drawing 192] = 2.35

Kindly give each listed record's half-life at 1 μM.
1. CN(C(=O)[C@H](Cc1ccccc1)NC(=O)Cc1ccc2ccccc2c1)c1ccc(Cl)cc1 [drawing 182]
2. Cc1cn(CC(=O)N[C@@H](Cc2ccccc2)C(=O)N(C)c2ccc(Cl)cc2)c(=O)[nH]c1=O [drawing 195]

[3.98, 23.1]

Entry under review: Cc1cccc2c1NC(=O)C2CC(=O)N[C@@H](Cc1ccccc1)C(=O)N(C)c1cccc(F)c1 (some centres unmarked) [drawing 178] . Reported half-life at 1 μM?
7.22

###

# Test system: TZM-GFP cells
# ASSAY NAME: Cytotoxicity in TZM-GFP cells (XTT)
# Assay type: cell-based
# CONDITION INFO: 50 μM compound
METRIC: % viability at 50 μM (%)
Give bare numbers, in %.

• Cc1[nH]c2ccccc2c1CC(=O)N[C@@H](Cc1ccccc1)c1nccn1-c1ccc(C#N)cc1 = 87

Kindly give each listed record's % viability at 50 μM.
1. Cc1[nH]c2ccccc2c1CC(=O)N[C@@H](Cc1ccccc1)c1ncccc1-c1ccccc1
2. O=C(Cn1ncc2ccccc21)N[C@@H](Cc1ccccc1)c1ncccc1-c1ccccc1
3. Cc1[nH]c2ccccc2c1CC(=O)N[C@@H](Cc1ccccc1)c1nccn1-c1ccccc1
4. O=C(Cn1cccn1)N[C@@H](Cc1ccccc1)c1ncccc1-c1ccccc1

1. 29
2. 46
3. 78
4. 102

###

Consider the following compounds; for each one, report its MLM half-life (t1/2).
# ASSAY NAME: Microsomal stability assay, mouse liver microsomes
# Format: in vitro ADME
# CONDITION INFO: 1 μM compound, NADPH, without Cobicistat
# Experimental: The in vitro microsomal stability assay was conducted in duplicate in mouse and human liver microsomal systems, which were supplemented with nicotinamide adenine dinucleotide phosphate (NADPH) as a cofactor. […] The reaction was initiated by addition of 1 mM NADPH, followed by incubation at 37° C. […] The supernatants were collected and analyzed by LC-MS/MS to determine the in vitro metabolic half-life (t1/2).
Answers are plain numbers, in min.

* Cc1cn(CC(=O)N[C@@H](Cc2ccccc2)C(=O)N(C)c2ccc(Cl)cc2)c(=O)[nH]c1=O [drawing 195] | 4.6
* CN(C(=O)[C@H](Cc1ccccc1)NC(=O)CNC(=O)c1ccccc1)c1ccc(Cl)cc1 [drawing 192] | 13

Kindly give each listed record's MLM half-life (t1/2).
1. Cc1ccc(N(C)C(=O)[C@H](Cc2ccccc2)NC(=O)CNC(=O)c2ccccc2)cc1 [drawing 191]
2. CN(C(=O)[C@H](Cc1ccccc1)NC(=O)CNC(=O)c1ccccc1)c1ccccc1 [drawing 190]
3. Cc1[nH]c2ccccc2c1CC(=O)N[C@@H](Cc1ccccc1)C(=O)N(C)c1ccccc1 [PF-74, reference compound]

5.0
3.6
0.6

Kindly give each listed record's MLM half-life (t1/2).
1. CCN(C(=O)[C@H](Cc1ccccc1)NC(=O)CNC(=O)c1ccccc1)c1ccccc1 [drawing 194]
2. CN(C(=O)[C@H](Cc1ccccc1)NC(=O)CNC(=O)c1ccccc1)c1cccc(F)c1 [drawing 193]

1. 2.4
2. 3.6

###

Consider the following compounds; for each one, report its HLM half-life (t1/2).
# ASSAY NAME: Microsomal stability assay, human liver microsomes
# Type: in vitro ADME
# CONDITION INFO: human liver microsomes, 1 μM compound, NADPH, without Cobicistat
Answers are plain numbers, in min.

These recorded examples may help you get a feel for the data.
• CN(C(=O)[C@H](Cc1ccccc1)NC(=O)CNC(=O)c1ccccc1)c1ccc(Cl)cc1 [drawing 192] = 36
• CN(C(=O)[C@H](Cc1ccccc1)NC(=O)CNC(=O)c1ccccc1)c1ccccc1 [drawing 190] = 15
• Cc1cn(CC(=O)N[C@@H](Cc2ccccc2)C(=O)N(C)c2ccc(Cl)cc2)c(=O)[nH]c1=O [drawing 195] = 12

Kindly give each listed record's HLM half-life (t1/2).
1. CN(C(=O)[C@H](Cc1ccccc1)NC(=O)CNC(=O)c1ccccc1)c1cccc(F)c1 [drawing 193]
2. Cc1ccc(N(C)C(=O)[C@H](Cc2ccccc2)NC(=O)CNC(=O)c2ccccc2)cc1 [drawing 191]
3. CCN(C(=O)[C@H](Cc1ccccc1)NC(=O)CNC(=O)c1ccccc1)c1ccccc1 [drawing 194]

[12, 22, 14]

###

# ASSAY NAME: Cytotoxicity in TZM-GFP cells (XTT)
# Type: cell-based
# CONDITION INFO: human, 72 hours exposure, XTT
METRIC: CC50 at 72 h

• CN(C(=O)[C@H](Cc1ccccc1)NC(=O)CNC(=O)c1ccccc1)c1ccc(Cl)cc1 = > 50 µM
• CN(C(=O)[C@H](Cc1ccccc1)NC(=O)Cc1cccc2ccccc12)c1ccccc1 = < 50 µM
• Cc1cn(CC(=O)N[C@@H](Cc2ccccc2)C(=O)N(C)c2ccccc2)c(=O)[nH]c1=O = > 50 µM
• Cc1cccc2c1NC(=O)C2CC(=O)N[C@@H](Cc1ccccc1)C(=O)N(C)c1ccccc1 (some centres unmarked) = > 50 µM
• CN(C(=O)[C@H](Cc1ccccc1)NC(=O)CNC(=O)c1ccccc1)c1ccccc1 = > 50 µM

Kindly give each listed record's CC50 at 72 h.
1. Cc1ccc(N(C)C(=O)[C@H](Cc2ccccc2)NC(=O)CNC(=O)c2ccccc2)cc1
2. Cc1ccc(N(C)C(=O)[C@H](Cc2ccccc2)NC(=O)Cc2ccc3ccccc3c2)cc1
3. CCN(C(=O)[C@H](Cc1ccccc1)NC(=O)CNC(=O)c1ccccc1)c1ccccc1
4. CCN(C(=O)[C@H](Cc1ccccc1)NC(=O)CN1C(=O)NC2(CCCCC2)C1=O)c1ccccc1
5. CN(C(=O)[C@H](Cc1ccccc1)NC(=O)Cc1cccc2ccccc12)c1cccc(Cl)c1
6. CN(C(=O)[C@H](Cc1ccccc1)NC(=O)Cc1cccc2ccccc12)c1cccc(F)c1
7. Cc1ccc(C)c2c1NC(=O)C2CC(=O)N[C@@H](Cc1ccccc1)C(=O)N(C)c1ccccc1 (some centres unmarked)
8. CN(C(=O)[C@H](Cc1ccccc1)NC(=O)CN1C(=O)NC2(CCCCC2)C1=O)c1cccc(Cl)c1

> 50 µM
< 50 µM
> 50 µM
> 100 µM
< 50 µM
< 50 µM
> 100 µM
< 50 µM
